The values you see were collected from patent US12540131B2.

target: GST tagged truncated human mutant G2019S LRRK2 (Homo sapiens (Human), UniProt Q5S007, G2019S); assay: LRRK2 Km ATP LanthaScreen Assay; assay type: biochemical; conditions: G2019S LRRK2, 134 μM ATP (Km ATP), mean values
Sequence (Q5S007 970-2527 G2019S): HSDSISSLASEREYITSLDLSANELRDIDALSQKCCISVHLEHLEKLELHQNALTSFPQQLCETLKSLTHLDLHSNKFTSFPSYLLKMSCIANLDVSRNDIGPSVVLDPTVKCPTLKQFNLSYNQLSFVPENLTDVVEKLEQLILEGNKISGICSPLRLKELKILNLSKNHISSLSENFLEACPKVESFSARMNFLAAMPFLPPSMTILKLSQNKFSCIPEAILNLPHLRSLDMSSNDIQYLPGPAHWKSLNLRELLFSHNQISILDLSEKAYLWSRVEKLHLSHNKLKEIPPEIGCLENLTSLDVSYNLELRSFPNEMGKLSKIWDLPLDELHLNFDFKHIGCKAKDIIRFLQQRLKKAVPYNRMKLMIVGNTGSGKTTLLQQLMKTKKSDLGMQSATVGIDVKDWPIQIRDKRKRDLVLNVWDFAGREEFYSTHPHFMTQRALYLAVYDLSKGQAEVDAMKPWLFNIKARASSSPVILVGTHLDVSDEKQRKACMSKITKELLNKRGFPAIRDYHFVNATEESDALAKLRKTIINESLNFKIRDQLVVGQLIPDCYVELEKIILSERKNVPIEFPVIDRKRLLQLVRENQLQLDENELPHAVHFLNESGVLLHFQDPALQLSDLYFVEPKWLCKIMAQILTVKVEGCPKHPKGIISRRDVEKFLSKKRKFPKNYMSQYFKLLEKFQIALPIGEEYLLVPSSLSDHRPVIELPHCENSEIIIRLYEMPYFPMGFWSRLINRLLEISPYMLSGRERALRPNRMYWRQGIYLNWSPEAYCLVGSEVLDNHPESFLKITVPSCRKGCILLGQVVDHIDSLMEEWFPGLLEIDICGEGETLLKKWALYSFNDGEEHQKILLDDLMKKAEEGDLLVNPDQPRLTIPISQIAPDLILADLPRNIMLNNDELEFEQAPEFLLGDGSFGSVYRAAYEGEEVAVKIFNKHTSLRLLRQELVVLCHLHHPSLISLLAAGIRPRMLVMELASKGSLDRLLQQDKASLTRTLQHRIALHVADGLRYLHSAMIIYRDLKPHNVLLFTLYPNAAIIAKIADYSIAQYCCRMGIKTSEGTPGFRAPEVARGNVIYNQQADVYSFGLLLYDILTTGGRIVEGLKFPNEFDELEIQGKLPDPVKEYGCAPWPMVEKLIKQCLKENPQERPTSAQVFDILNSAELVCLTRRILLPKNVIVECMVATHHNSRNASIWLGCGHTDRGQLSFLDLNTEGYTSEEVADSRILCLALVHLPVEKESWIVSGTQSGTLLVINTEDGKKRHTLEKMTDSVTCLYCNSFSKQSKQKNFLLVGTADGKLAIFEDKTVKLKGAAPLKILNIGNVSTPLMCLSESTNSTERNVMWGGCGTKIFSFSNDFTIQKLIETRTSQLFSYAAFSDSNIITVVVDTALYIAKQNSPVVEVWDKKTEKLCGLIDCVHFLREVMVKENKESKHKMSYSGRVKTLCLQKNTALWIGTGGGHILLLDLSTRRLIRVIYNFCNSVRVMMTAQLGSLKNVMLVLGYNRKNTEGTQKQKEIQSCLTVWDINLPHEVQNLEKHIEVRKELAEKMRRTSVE
readout: LRRK2 pIC50
I'd appreciate a reply containing only the number, no unit.

Any idea what LRRK2 pIC50 was measured for COC[C@@H](O)CN1CCC(c2cc3nc(Nc4cnn(C5CC5)c4C)ncc3cc2Cl)CC1 ? 8.75

Any idea what its LRRK2 pIC50 is? The molecule is COC(C)(C)Cn1ncc(Nc2ncc3cc(Cl)c(C4CCN(C5COC5)CC4)cc3n2)c1C 9.17

Any idea what LRRK2 pIC50 was measured for COC12CC(n3ncc(Nc4ncc5cc(Cl)c([C@@H]6CCN([C@@H]7COC[C@@H]7O)C[C@H]6F)cc5n4)c3Cl)(C1)C2 (single isomer, unassigned) ? 9.19

Tell me the measured LRRK2 pIC50 of CO[C@H]1COC[C@H]1N1CC[C@@H](c2cc3nc(Nc4cnn(C5CC5)c4Cl)ncc3cc2C)[C@H](F)C1 (single isomer, unassigned) [Ex-4.250] , please. 8.22

Data request, read-out LRRK2 pIC50, for Clc1cc2cnc(Nc3cnn(CC4CCC4)c3Cl)nc2cc1C1CCN(C2COC2)CC1 9.17

If you can, please state the reported LRRK2 pIC50 value of Cc1c(Nc2ncc3cc(Cl)c(C4CCN(C[C@H](O)c5c(F)cccc5F)CC4)cc3n2)cnn1C1CC1 . 7.96

Which LRRK2 pIC50 is reported for this molecule? Cn1ncc(Nc2ncc3cc(Cl)c(C4CCN([C@]5(C)COC[C@@H]5O)CC4)cc3n2)c1Cl (single isomer, unassigned) 7.76

Fill in: LRRK2 pIC50 of CC1OCC1N1CC[C@@H](c2cc3nc(Nc4cnn(CC(C)(C)O)c4Cl)ncc3cc2Cl)[C@H](F)C1 (single isomer, unassigned) [Ex-4.71] is ___ 7.74
